- assayed_system: Tyrosine-protein phosphatase non-receptor type 1 (Homo sapiens, UniProt P18031)
- Sequence (P18031 whole entry): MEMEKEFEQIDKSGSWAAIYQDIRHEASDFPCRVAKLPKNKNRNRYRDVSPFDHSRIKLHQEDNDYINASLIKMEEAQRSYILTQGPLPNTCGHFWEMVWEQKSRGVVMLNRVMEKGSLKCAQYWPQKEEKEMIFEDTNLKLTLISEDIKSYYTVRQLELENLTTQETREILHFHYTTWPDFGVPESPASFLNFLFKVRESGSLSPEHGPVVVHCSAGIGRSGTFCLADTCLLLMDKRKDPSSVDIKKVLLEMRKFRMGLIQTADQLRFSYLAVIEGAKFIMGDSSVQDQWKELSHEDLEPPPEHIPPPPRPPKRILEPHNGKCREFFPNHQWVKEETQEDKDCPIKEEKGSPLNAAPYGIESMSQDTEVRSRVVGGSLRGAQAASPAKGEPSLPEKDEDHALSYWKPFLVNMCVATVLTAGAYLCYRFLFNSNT
property_measured: IC50 (µM)

Consider the reported IC50 for these compounds:
Request: What reported IC50 corresponds to CC(=O)N[C@@H](Cc1ccccc1)C(=O)N[C@@H](Cc1ccc(C2CC(=O)NS2(=O)=O)cc1)C(N)=O (stereo partly specified) on Tyrosine-protein phosphatase non-receptor type 1 (Homo sapiens, UniProt P18031)?
Response: 0.661

Request: Input NC(=O)[C@H](Cc1ccc(C2CC(=O)NS2(=O)=O)cc1)NC(=O)[C@@H](N)Cc1ccccc1 (stereo partly specified)
Response: 100

(A) NC(=O)[C@H](Cc1ccc(C2CC(=O)NS2(=O)=O)cc1)NC(=O)[C@H](Cc1ccccc1)NC(=O)Cc1ccc(O)cc1 (stereo partly specified)
(B) NC(=O)[C@H](Cc1ccc(C2=CC(=O)NS2(=O)=O)cc1)NC(=O)[C@@H](N)Cc1ccccc1
(C) CCCCCNC(=O)[C@H](Cc1ccc(N2CC(=O)NS2(=O)=O)cc1)NC(=O)[C@H](Cc1ccccc1)NC(=O)Cc1ccc(OC)cc1
(D) NC(=O)[C@H](Cc1ccc(C2=CC(=O)NS2(=O)=O)cc1)NC(=O)[C@H](Cc1ccccc1)NC(=O)Cc1ccc(O)cc1
Request: Order field: IC50 | Direction: descending (largest first) Reply with the labels, ordered as the question asks.
Response: B, C, D, A
